test system: HTT mRNA; experiment: Splicing assay (RT-qPCR) of HTT mRNA alternative junction (AJ) and canonical junction (CJ); assay type: cell-based; conditions: decrease in CJ mRNA; A673 or K562 cells, 24 hours; read-out: HTT CJ IC50
pIC50: −log10 of the molar value.
endpoint: pIC50

Some molecules with recorded pIC50:
> print(dat)
                                   molecule  endpoint  recorded.measurement
1  Cc1cn2cc(-c3ccc4nc(N5CCC(NC(C)(C)C)C5)ccc4n3)cc(C)c2n1 (stereo not shown)     pIC50          6.00 to 7.00
2  Cc1nc2cc(O)c(-c3ccc4nc(N5CC[C@@H](NC6(C)CC6)C5)ccc4n3)cc2o1 (single isomer, unassigned)     pIC50                > 7.00
3  Cc1nc2cc(O)c(-c3ccc4nc(N5CC[C@@H](NC6CC6)C5)ccc4n3)cc2o1 (single isomer, unassigned)     pIC50                > 7.00
4  CN1CCCC2(CCN2c2ccc3nc(-c4cc5cn(C)nc5cc4O)ccc3n2)C1 (stereo not shown)     pIC50                < 5.00
5  CN(C)C1CCN(c2ccc3nc(-c4cc5cn(C)nc5cc4O)ccc3n2)C1 (stereo not shown)     pIC50          6.00 to 7.00

For Cc1nc2cc(O)c(-c3ccc4nc(N5CCC(N)C5)ccc4n3)cc2o1 (stereo not shown) the molecule record lists pIC50 as 6.00 to 7.00

pIC50 recorded for this molecule, Cc1nc2cc(O)c(-c3ccc4nc(N5CCC(NC6CCC6)C5)ccc4n3)cc2o1 (single isomer, unassigned) [Compound 230] , is > 7.00
